- test_target: T1, IL-18Rα/β heterodimer (Fc fused human IL-18Rα mixed with Fc fused human IL-18Rβ) (human, UniProt Q13478 19-329; O95256 20-356, limits assumed)
- T1 construct: Alpha and beta Fc fusions were mixed and pre-incubated for 30 min before capture on anti-human IgG; also called alpha/beta heterodimer IL-18 receptor; heterodimeric human IL-18 receptor alpha (CD218a) and IL-18R accessory protein (IL-18RAP/CDw218b); not shown: Fc
- T1 sequence (looked up) 1: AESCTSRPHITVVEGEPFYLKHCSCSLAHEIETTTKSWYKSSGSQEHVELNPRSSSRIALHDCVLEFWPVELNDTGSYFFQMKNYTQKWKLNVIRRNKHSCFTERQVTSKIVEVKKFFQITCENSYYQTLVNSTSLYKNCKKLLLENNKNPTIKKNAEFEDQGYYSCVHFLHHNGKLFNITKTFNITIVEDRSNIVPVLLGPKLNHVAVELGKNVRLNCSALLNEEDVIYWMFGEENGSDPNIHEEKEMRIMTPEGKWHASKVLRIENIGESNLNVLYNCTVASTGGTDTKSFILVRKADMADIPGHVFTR
- T1 sequence (looked up) 2: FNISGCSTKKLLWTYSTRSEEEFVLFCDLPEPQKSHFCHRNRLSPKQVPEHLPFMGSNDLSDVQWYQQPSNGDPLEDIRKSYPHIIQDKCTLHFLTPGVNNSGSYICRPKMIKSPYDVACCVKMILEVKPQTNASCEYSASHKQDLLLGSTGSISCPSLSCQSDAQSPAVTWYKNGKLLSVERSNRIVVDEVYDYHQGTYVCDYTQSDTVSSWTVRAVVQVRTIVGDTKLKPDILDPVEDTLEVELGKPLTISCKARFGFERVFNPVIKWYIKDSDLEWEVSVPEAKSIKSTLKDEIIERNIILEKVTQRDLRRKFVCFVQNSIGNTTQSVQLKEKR
- method_notes: SPR, Fc-IL-18Rα/β captured, heterogeneous ligand fit
reported_property: kon

As a guide, the following entries are already answered.
# binder, reported_property, assay_result
rows = [
    ("IL-18 variant SEQ ID NO: 30 with 20 kDa PEG (E6K, V11I, C38A, K53A, T63A, C76A, C127A, C68-20kPEG) (ligand, 20 kDa PEG on Cys 68 (C68-20kPEG), also called 30 + PEG20) YFGKLKSKLSIIRNLNDQVLFIDQGNRPLFEDMTDSDARDNAPRTIFIISMYADSQPRGMAVAISVKCEKISTLSAENKIISFKEMNPPDNIKDTKSDIIFFQRSVPGHDNKMQFESSSYEGYFLAAEKERDLFKLILKKEDELGDRSIMFTVQNED", "kon", "116000 M⁻¹ s⁻¹"),
    ("IL-18 variant SEQ ID NO: 59 (E6K, C38A, K53A) (ligand) YFGKLKSKLSVIRNLNDQVLFIDQGNRPLFEDMTDSDARDNAPRTIFIISMYADSQPRGMAVTISVKCEKISTLSCENKIISFKEMNPPDNIKDTKSDIIFFQRSVPGHDNKMQFESSSYEGYFLACEKERDLFKLILKKEDELGDRSIMFTVQNED", "kon", "1.24e+06 M⁻¹ s⁻¹"),
    ("IL-18 variant SEQ ID NO: 57 with 30 kDa PEG (E6K, C38S, K53A, C68-30kDPEG) (ligand, 30 kDa PEG on Cys 68 (C68-30kDPEG), also called 57 + PEG30; 57 + PEG) YFGKLKSKLSVIRNLNDQVLFIDQGNRPLFEDMTDSDSRDNAPRTIFIISMYADSQPRGMAVTISVKCEKISTLSCENKIISFKEMNPPDNIKDTKSDIIFFQRSVPGHDNKMQFESSSYEGYFLACEKERDLFKLILKKEDELGDRSIMFTVQNED", "kon", "33800 M⁻¹ s⁻¹"),
    ("IL-18 variant SEQ ID NO: 60 with 30 kDa PEG (E6K, C38Q, K53A, C68-30kPEG) (ligand, 30 kDa PEG on Cys 68 (C68-30kPEG), also called 60 + PEG) YFGKLKSKLSVIRNLNDQVLFIDQGNRPLFEDMTDSDQRDNAPRTIFIISMYADSQPRGMAVTISVKCEKISTLSCENKIISFKEMNPPDNIKDTKSDIIFFQRSVPGHDNKMQFESSSYEGYFLACEKERDLFKLILKKEDELGDRSIMFTVQNED", "kon", "68300 M⁻¹ s⁻¹"),
    ("IL-18 variant SEQ ID NO: 59 with 30 kDa PEG (E6K, C38A, K53A, C68-30kDPEG) (ligand, 30 kDa PEG on Cys 68 (C68-30kDPEG), also called 59 + PEG30; 59 + PEG) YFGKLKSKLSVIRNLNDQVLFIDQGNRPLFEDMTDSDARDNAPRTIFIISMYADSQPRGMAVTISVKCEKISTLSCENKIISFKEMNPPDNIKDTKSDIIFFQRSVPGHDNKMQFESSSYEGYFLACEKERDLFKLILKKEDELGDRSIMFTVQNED", "kon", "84500 M⁻¹ s⁻¹"),
    ("IL-18 variant SEQ ID NO: 30 (E6K, V11I, C38A, K53A, T63A, C76A, C127A) (ligand) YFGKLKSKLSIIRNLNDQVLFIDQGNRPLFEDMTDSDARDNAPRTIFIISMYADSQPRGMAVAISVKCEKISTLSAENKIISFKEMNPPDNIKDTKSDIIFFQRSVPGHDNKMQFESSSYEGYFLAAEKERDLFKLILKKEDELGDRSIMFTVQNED", "kon", "866000 M⁻¹ s⁻¹"),
]

Let us examine a further case.
Prompt line: For the binder IL-18 variant SEQ ID NO: 63 (E6K, C38A, K53A, C76A, C127A) (ligand) YFGKLKSKLSVIRNLNDQVLFIDQGNRPLFEDMTDSDARDNAPRTIFIISMYADSQPRGMAVTISVKCEKISTLSAENKIISFKEMNPPDNIKDTKSDIIFFQRSVPGHDNKMQFESSSYEGYFLAAEKERDLFKLILKKEDELGDRSIMFTVQNED , what kon is on record?
Response line: 1.15e+06 M⁻¹ s⁻¹
